target: ERα protein (HiBiT-tagged) in ESR1_HiBiT KI MCF7 cells (Homo sapiens, UniProt P03372); experiment: Nano Glo HiBiT Lytic Degradation Assay; type: cell-based; details: 6 hours with compound, 14-point dose response 1:3, bell-shape curve fit, half-maximal effect of first Hill model, read-out: MCF7 ESR1 HiBiT - (DC50)
MEASUREMENT_KIND: DC50 (nM)
All answers are understood in nM, so give the number only.

C[C@@]1(C2CCCCC2)OCc2cc(O)ccc2[C@@H]1c1ccc(N2CCC(CN3CCN(c4ccc5c(c4)CN([C@H]4CCC(=O)NC4=O)C5=O)CC3)CC2)cc1 (single isomer, unassigned) = 18
Cc1cc(N2CCC3(CCN(CC4CCN(c5ccc([C@@H]6c7ccc(O)cc7CO[C@@H]6c6ccccc6)cc5)CC4)C3)CC2)ccc1N1CCC(=O)NC1=O = 0.13

API: the following record is the query input.
Form field DC50 for item C[C@H]1O[C@@H](C2CCCCC2)[C@H](c2ccc(N3CCC(CN4CCN(c5ccc6c(c5)CN([C@H]5CCC(=O)NC5=O)C6=O)CC4)CC3)cc2)c2ccc(O)cc21 (single isomer, unassigned) on ERα protein (HiBiT-tagged) in ESR1_HiBiT KI MCF7 cells (Homo sapiens, UniProt P03372): 0.45

* * *

In this section we review reported DC50 values for a set of compounds.
biological target: ERα protein (HiBiT-tagged) in ESR1_HiBiT KI MCF7 cells (Homo sapiens); assay: Nano Glo HiBiT Lytic Degradation Assay; format: cell-based; settings: 6 hours with compound, 14-point dose response 1:3, bell-shape curve fit, half-maximal effect of first Hill model, read-out: MCF7 ESR1 HiBiT - (DC50)
All answers are understood in nM, so give the number only.

For orientation, consider the following solved cases.
O=C1CC[C@H](N2Cc3cc(N4CCN(CC5CCN(c6ccc(C7c8ccc(O)cc8CCC7C7CCCCC7)cn6)CC5)CC4)ccc3C2=O)C(=O)N1 (stereo in doubt) [Compound I-154] = 3300
O=C1CCC(c2ccc3c(c2)CN(C2CCN(CC4CCN(c5ccc([C@H]6c7ccc(O)cc7CC[C@H]6c6ccccc6)cc5)CC4)CC2)CC3)C(=O)N1 (stereo in doubt) = 737
O=C1CC[C@H](N2Cc3cc(N4CCN(CC5CCN(c6ccc([C@@H]7c8ccc(O)cc8CO[C@@H]7C7CCC7)cc6)CC5)CC4)ccc3C2=O)C(=O)N1 = 0.23
Cc1cccc([C@H]2CCc3cc(O)ccc3[C@H]2c2ccc(N3CCC(CN4CCN(c5ccc6c(c5)CN([C@H]5CCC(=O)NC5=O)C6=O)CC4)CC3)cc2)c1 (single isomer, unassigned) = 20

API: the following record is the query input.
The reported DC50 of the compound [2H]c1cc2c(c([2H])c1O)C([2H])C[C@H](c1ccccc1)[C@@H]2c1ccc(N2CCC(CN3CCN(c4ccc5c(c4)CN([C@H]4CCC(=O)NC4=O)C5=O)CC3)CC2)cn1 (some centres unmarked) was 0.31

* * *

Target: ERα protein (HiBiT-tagged) in ESR1_HiBiT KI MCF7 cells (Homo sapiens)
Sequence (P03372 1-595): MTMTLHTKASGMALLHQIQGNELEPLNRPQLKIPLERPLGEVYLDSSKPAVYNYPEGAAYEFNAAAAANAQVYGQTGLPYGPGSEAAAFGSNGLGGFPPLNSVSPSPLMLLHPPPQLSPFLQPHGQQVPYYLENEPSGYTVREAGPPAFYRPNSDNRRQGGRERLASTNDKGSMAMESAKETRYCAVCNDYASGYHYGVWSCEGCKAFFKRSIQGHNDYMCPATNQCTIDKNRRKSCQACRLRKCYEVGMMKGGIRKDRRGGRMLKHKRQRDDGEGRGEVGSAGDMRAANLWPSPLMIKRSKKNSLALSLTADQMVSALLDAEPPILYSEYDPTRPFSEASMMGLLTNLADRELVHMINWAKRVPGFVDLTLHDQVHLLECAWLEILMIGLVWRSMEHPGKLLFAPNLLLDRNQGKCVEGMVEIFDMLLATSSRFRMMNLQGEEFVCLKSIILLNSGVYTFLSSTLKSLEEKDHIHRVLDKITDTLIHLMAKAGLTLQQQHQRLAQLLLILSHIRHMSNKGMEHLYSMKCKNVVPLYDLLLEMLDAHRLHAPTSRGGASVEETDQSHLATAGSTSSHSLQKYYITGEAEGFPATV
Assay: Nano Glo HiBiT Lytic Degradation Assay
Type: cell-based
Details: 6 hours with compound, 14-point dose response 1:3, bell-shape curve fit, half-maximal effect of first Hill model, read-out: MCF7 ESR1 HiBiT - (DC50)
MEASUREMENT_KIND: DC50 (nM)
All answers are understood in nM, so give the number only.

O=C1CC[C@H](N2Cc3cc(N4CCN(C[C@H]5CCCN(c6ccc([C@@H]7c8ccc(O)cc8CC[C@@H]7c7ccccc7)cc6)C5)CC4)ccc3C2=O)C(=O)N1 (single isomer, unassigned) = 5

API: the following record is the query input.
The reported DC50 of the compound O=C1CC[C@H](N2Cc3cc(N4CCN(CC5CCN(c6ccc([C@@H]7c8ccc(O)cc8CO[C@@H]7c7ccc(F)cc7)cc6)CC5)CC4)ccc3C2=O)C(=O)N1 was 0.3
